Target System: Protein farnesyltransferase (Bos taurus, UniProt P29702+P49355)
Test: Inhibition of the Farnesyltransferase catalyzed incorporation of [3H]FPP into recombinant Ha-Ras by 50% in bovine brain at a concentration of ca. 1 nM.
pIC50: −log10 of the molar value.
Record T whenever pIC50 is at 6 or higher; record F when lower.

## Task Has N[C@@H](CS)C(=O)Nc1ccc(Oc2ccc(C(=O)O)cc2)cc1 a recorded pIC50 greater than or equal to 6?
## Result F

## Task Now consider COC(=O)c1ccc(Oc2cccc(NC(=O)[C@@H](N)CS)c2)cc1 .
## Result F

## Task Now consider N[C@@H](CS)CNc1ccc(Oc2cccc(CO)c2)cc1 .
## Result T

## Task Now consider N[C@@H](CS)CNc1ccc(Oc2ccc(C(=O)O)cc2)cc1 .
## Result F

## Task Now consider N[C@@H](CS)CNc1ccc(Oc2ccccc2)cc1 .
## Result T

## Task Now consider N[C@@H](CS)CNc1cccc(Oc2ccccc2)c1 .
## Result F

## Task Now consider Cc1cccc(Oc2ccc(NC[C@@H](N)CS)cc2)c1 .
## Result T

Reference for the values: ChEMBL document CHEMBL1130358
